Origin of values: patent US9688684B2

Kindly supply the reported IC50 values for the records listed here.
Molecular target: human RORγ ligand binding domain (GST-hRORγ-LBD) (Homo sapiens (Human), UniProt P51449)
Sequence (P51449 269-508): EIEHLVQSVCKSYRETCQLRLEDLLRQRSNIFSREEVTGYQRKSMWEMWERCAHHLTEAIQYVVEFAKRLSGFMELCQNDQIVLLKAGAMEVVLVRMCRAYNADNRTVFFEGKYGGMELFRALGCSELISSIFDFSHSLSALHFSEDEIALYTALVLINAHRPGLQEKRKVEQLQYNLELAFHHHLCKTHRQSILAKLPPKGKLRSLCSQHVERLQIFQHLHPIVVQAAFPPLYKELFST
Test: TR-FRET assay (biochemical cofactor interaction assay, GST-hRORγ-LBD / TRAP220 peptide)

QUERY: Reported IC50, compound Cc1nn(C)c(C)c1CN1CCn2nnnc2C1c1cn(-c2ccccc2)nc1C(C)C (stereo not drawn) : ____
RESULT: 9.9 to 40 µM

QUERY: Which IC50 value belongs to CC(C)c1nn(-c2ccccc2)cc1C1c2nnnn2CCN1Cc1cccc(F)c1F (stereo not drawn) ?
RESULT: 9.9 to 40 µM

QUERY: Quick check: IC50 of O=C(c1cccc(Br)c1)N1CCn2nnnc2C1c1cccc(F)c1 (stereo not drawn) ?
RESULT: 9.9 to 40 µM

QUERY: Can you look up the measured IC50 of Fc1ccccc1C1c2nnnn2CCN1Cc1cccc(Br)c1 (stereo not drawn) for me?
RESULT: 0.99 to 9.9 µM

QUERY: # get_value(readout='IC50', item= Clc1ccc(C2c3nnnn3CCN2Cc2cccs2)cc1 (stereo not drawn) )
RESULT: 0.01 to 0.99 µM

QUERY: Sample Fc1cccc(CN2CCn3nnnc3C2c2cccc(F)c2F)c1F (stereo not drawn) — what was its IC50?
RESULT: 9.9 to 40 µM

QUERY: Reported IC50 for COc1ccc(OC)c(C2c3nnnn3CCN2Cc2cn(-c3ccccc3)nc2C(C)C)c1 (stereo not drawn) : what is it?
RESULT: 9.9 to 40 µM

QUERY: Report IC50 for Cc1cccc(C2c3nnnn3CCN2Cc2ccccc2)c1 (stereo not drawn) please.
RESULT: 0.01 to 0.99 µM

QUERY: # IC50 lookup, item Cc1cccc(CN2CCn3nnnc3C2c2ccc3c(c2)OCCO3)c1 (stereo not drawn)
RESULT: 0.01 to 0.99 µM

====

Molecular target: human RORγ ligand binding domain (GST-hRORγ-LBD) (Homo sapiens (Human), UniProt P51449)
Assay: TR-FRET assay (biochemical cofactor interaction assay, GST-hRORγ-LBD / TRAP220 peptide)
pIC50: −log10 of the molar value.
REPORTED PROPERTY: pIC50

QUERY: Entry Fc1ccc(C2c3nnnn3CCN2Cc2cccs2)cc1 (centres unmarked) : reported pIC50 = ?
RESULT: 5.00 to 6.00

QUERY: Data request, read-out pIC50, for Fc1cccc(C2c3nnnn3CCN2Cc2cccs2)c1 (centres unmarked)
RESULT: 5.00 to 6.00

QUERY: Quick one: pIC50 for CC(C)c1nn(-c2ccccc2)cc1C1c2nnnn2CCN1Cc1ccc2c(c1)OCO2 (centres unmarked) ?
RESULT: 4.40 to 5.00

QUERY: Any idea what its pIC50 is? The compound is Cc1ccc(CN2CCn3nnnc3C2c2ccc(OC(C)C)cc2)o1 (centres unmarked)
RESULT: 4.40 to 5.00

QUERY: Returns the measured pIC50 for the input compound. Input: CC(C)c1nn(-c2ccccc2)cc1C1c2nnnn2CCN1Cc1cnn(Cc2ccccc2)c1 (centres unmarked)
RESULT: 5.00 to 6.00

QUERY: Fill in: pIC50 of CC(C)Oc1ccc(C2c3nnnn3CCN2CC2CCCCC2)cc1 (centres unmarked) is ___
RESULT: 4.40 to 5.00

QUERY: Suppose we examine the compound CN(C)c1ccc(CN2CCn3nnnc3C2C2CCCCC2)cc1 (centres unmarked) ; what pIC50 value has been reported?
RESULT: 4.40 to 5.00

QUERY: Item under review: COc1ccc(OC)c(C2c3nnnn3CCN2Cc2cccc(F)c2F)c1 (centres unmarked) . Reported pIC50?
RESULT: 4.40 to 5.00

QUERY: # get_value(readout='pIC50', item= Cc1cccc(CN2CCn3nnnc3C2c2ccc(F)cc2F)c1 (centres unmarked) )
RESULT: 5.00 to 6.00

QUERY: Given CCOc1ccc(C2c3nnnn3CCN2Cc2cccc(F)c2F)cc1 (centres unmarked) , state its recorded pIC50.
RESULT: 4.40 to 5.00

QUERY: Dear colleague, I am looking for the recorded pIC50 of the following compound: CC(C)c1nn(-c2ccccc2)cc1C1c2nnnn2CCN1C1CCCCC1 (centres unmarked)
RESULT: 5.00 to 6.00

====

Molecular target: RORγ Ligand binding domain (RORγ-LBD, aa 238-497, NP_001001523) (Homo sapiens (Human), UniProt P51449)
Sequence (P51449 259-518): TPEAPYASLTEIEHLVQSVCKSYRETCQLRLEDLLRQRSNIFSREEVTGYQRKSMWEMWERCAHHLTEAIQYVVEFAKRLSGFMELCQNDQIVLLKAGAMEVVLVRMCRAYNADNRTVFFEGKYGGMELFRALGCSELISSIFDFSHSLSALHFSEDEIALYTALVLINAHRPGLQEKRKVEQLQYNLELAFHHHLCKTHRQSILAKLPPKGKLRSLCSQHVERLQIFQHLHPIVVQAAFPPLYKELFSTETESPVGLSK
Test: ROR γ GAI4 Reporter Gene Assay (Mammalian one-hybrid, M1H) in 293T cells
Experimental: ROR γ GAI4 Reporter Gene Assay A Mammalian one-hybrid system is used to perform a cell-based functional transactivation assay for detecting RORγ activity modulators. The Mammalian-1-Hybrid is derived from the Mammalian-2-Hybrid setup. […] Firefly luciferase activity is measured using the Promega ONE-Glo™ Luciferase Assay System.
Can you tell me IC50 for the items I'm about to list?

QUERY: # lookup: IC50 of Cc1cccc(CN2CCn3nnnc3C2c2ccc(F)cc2F)c1 (stereo not drawn)
RESULT: 9.9 to 40 µM

QUERY: Given the entry CC(C)c1nn(-c2ccccc2)cc1C1c2nnnn2CCN1Cc1cnn2ccccc12 (stereo not drawn) , report its measured IC50.
RESULT: 0.99 to 9.9 µM

QUERY: Could you share which IC50 value was measured for CC(C)c1nn(-c2ccccc2)cc1C1c2nnnn2CCN1Cc1cnn(Cc2ccccc2)c1 (stereo not drawn) ?
RESULT: 0.99 to 9.9 µM

QUERY: Can you look up the measured IC50 of CC(C)c1nn(-c2ccccc2)cc1C1c2nnnn2CCN1Cc1cccs1 (single isomer, unassigned) [Compound 61-b] for me?
RESULT: 0.99 to 9.9 µM

QUERY: Which IC50 reading was recorded for the compound CCOc1ccc(C2c3nnnn3CCN2Cc2ccc(F)cc2)cc1 (stereo not drawn) ?
RESULT: 9.9 to 40 µM

QUERY: Which measured IC50 value corresponds to CC(C)(C)c1nn(Cc2ccccc2)cc1C1c2nnnn2CCN1Cc1cccs1 (stereo not drawn) ?
RESULT: 0.99 to 9.9 µM

QUERY: Any idea what IC50 was measured for Cc1c(CN2CCn3nnnc3C2c2cn(-c3ccccc3)nc2C(C)C)cnn1C (stereo not drawn) ?
RESULT: 9.9 to 40 µM

QUERY: Field request: IC50 | item: Fc1ccc(C2c3nnnn3CCN2Cc2cccs2)cc1 (stereo not drawn)
RESULT: 9.9 to 40 µM

QUERY: What does the record list as IC50 for CC(C)c1nn(-c2ccccc2)cc1C1c2nnnn2CCN1Cc1ccc2c(c1)OCO2 (stereo not drawn) ?
RESULT: 0.99 to 9.9 µM

====

Biological target: RORγ Ligand binding domain (RORγ-LBD, aa 238-497, NP_001001523) (Homo sapiens (Human), UniProt P51449)
Assay: ROR γ GAI4 Reporter Gene Assay (Mammalian one-hybrid, M1H) in 293T cells
pIC50: −log10 of the molar value.
REPORTED PROPERTY: pIC50

QUERY: Name the recorded pIC50 for Cc1cccc(CN2CCn3nnnc3C2c2cccc(F)c2)c1 (centres unmarked) [Compound 116] .
RESULT: 5.00 to 6.00

QUERY: Bench note: what pIC50 did Cc1ccc(CN2CCn3nnnc3C2c2ccc(OC(C)C)cc2)o1 (centres unmarked) [Compound 142] show?
RESULT: 4.40 to 5.00

QUERY: Dear colleague, I am looking for the recorded pIC50 of the following compound: Cc1cccc(CN2CCn3nnnc3C2c2ccc(OC(C)C)cc2)c1 (centres unmarked) [Compound 99]
RESULT: 5.00 to 6.00

QUERY: What value of measured pIC50 is listed for Fc1cccc(C2c3nnnn3CCN2Cc2cccs2)c1 (centres unmarked) [Compound 117] ?
RESULT: 4.40 to 5.00

QUERY: Which pIC50 value belongs to Cc1cccc(CN2CCn3nnnc3C2c2ccc(F)cc2)c1 (racemic) [Compound 93] ?
RESULT: 4.40 to 5.00

QUERY: Query (compound): Clc1ccc(C2c3nnnn3CCN2Cc2cccs2)cc1 (centres unmarked) [Compound 106] ; field requested: pIC50
RESULT: 4.40 to 5.00

QUERY: Please report the recorded pIC50 for Fc1cccc(CN2CCn3nnnc3C2c2cccc(F)c2)c1 (centres unmarked) [Compound 38] .
RESULT: 5.00 to 6.00

QUERY: Quick check: pIC50 of CC(C)c1nn(-c2ccccc2)cc1CN1CCn2nnnc2C1c1cccs1 (centres unmarked) [Compound 48] ?
RESULT: 4.40 to 5.00

QUERY: Which pIC50 value belongs to Fc1ccc(CN2CCn3nnnc3C2c2cccc(F)c2)cc1 (single isomer, unassigned) [Compound 91-b] ?
RESULT: 5.00 to 6.00

QUERY: Bench note: what pIC50 did Fc1ccccc1C1c2nnnn2CCN1Cc1cccs1 (centres unmarked) [Compound 137] show?
RESULT: 4.40 to 5.00

QUERY: # get_value(readout='pIC50', item= Fc1cc(F)cc(C2c3nnnn3CCN2Cc2cccc(Br)c2)c1 (centres unmarked) [Compound 107] )
RESULT: 4.40 to 5.00

QUERY: # pIC50 lookup, item Fc1ccc(C2c3nnnn3CCN2Cc2ccccc2)cc1 (centres unmarked) [Compound 102]
RESULT: 4.40 to 5.00

QUERY: Dear colleague, I am looking for the recorded pIC50 of the following compound: Fc1ccc(C2c3nnnn3CCN2Cc2cccc(Br)c2)cc1 (single isomer, unassigned) [Compound 96-a]
RESULT: 5.00 to 6.00

QUERY: So what does the record say about pIC50 for Fc1cc(F)cc(C2c3nnnn3CCN2Cc2ccccc2)c1 (centres unmarked) [Compound 101] ?
RESULT: 4.40 to 5.00

QUERY: Consider the compound shown here: CC(C)c1nn(-c2ccccc2)cc1C1c2nnnn2CCN1Cc1cccs1 (single isomer, unassigned) [Compound 61-a] What is its recorded pIC50?
RESULT: 6.00 to 8.00

QUERY: What pIC50 value was documented for this compound, Fc1ccc(CN2CCn3nnnc3C2c2ccc3c(c2)OCCO3)cc1 (centres unmarked) [Compound 133] ?
RESULT: 4.40 to 5.00

QUERY: Need pIC50, item Cc1cccc(C2c3nnnn3CCN2Cc2ccccc2)c1 (centres unmarked) [Compound 100]
RESULT: 4.40 to 5.00

QUERY: What does the record list as pIC50 for CC(C)c1nn(-c2ccccc2)cc1C1c2nnnn2CCN1Cc1cccc(F)c1F (centres unmarked) [Compound 63] ?
RESULT: 6.00 to 8.00

QUERY: Could you tell me which pIC50 is on file for CC(C)c1nn(-c2ccccc2)cc1C1c2nnnn2CCN1Cc1cccs1 (racemic) [Compound 61] ?
RESULT: 6.00 to 8.00

QUERY: Quick check: pIC50 of COc1ccc(OC)c(C2c3nnnn3CCN2Cc2ccc(F)cc2)c1 (centres unmarked) [Compound 128] ?
RESULT: 4.40 to 5.00

QUERY: Record request: pIC50 value, item Cc1cccc(CN2CCn3nnnc3C2c2ccc3c(c2)OCCO3)c1 (centres unmarked) [Compound 95]
RESULT: 5.00 to 6.00

QUERY: Name the reported pIC50 value associated with the compound Fc1ccc(CN2CCn3nnnc3C2c2cccc(F)c2)cc1 (racemic) [Compound 91]
RESULT: 6.00 to 8.00

QUERY: Recorded pIC50 of Fc1cccc(C2c3nnnn3CCN2Cc2cccc(Br)c2)c1 (centres unmarked) [Compound 163] , please.
RESULT: 4.40 to 5.00

QUERY: So what's the measured pIC50 for this one? COc1ccc(C2c3nnnn3CCN2Cc2ccc(F)cc2)cc1 (centres unmarked) [Compound 146]
RESULT: 5.00 to 6.00

QUERY: Dear colleague, I am looking for the recorded pIC50 of the following compound: COc1ccc(OC)c(CN2CCn3nnnc3C2c2cccc(F)c2F)c1 (centres unmarked) [Compound 71]
RESULT: 4.40 to 5.00

QUERY: Return reported pIC50; argument: COc1ccc(OC)c(CN2CCn3nnnc3C2c2cn(-c3ccccc3)nc2C(C)C)c1 (centres unmarked) [Compound 54]
RESULT: 4.40 to 5.00

QUERY: Recorded pIC50 for Fc1ccccc1C1c2nnnn2CCN1Cc1cccc(Br)c1 (centres unmarked) [Compound 119] , please?
RESULT: 5.00 to 6.00

QUERY: Would you mind telling me what pIC50 value was observed for CC(C)Oc1ccc(C2c3nnnn3CCN2Cc2ccc3c(c2)OCO3)cc1 (centres unmarked) [Compound 131] ?
RESULT: 4.40 to 5.00

QUERY: # query: pIC50 of entry Cc1cccc(CN2CCn3nnnc3C2c2ccc(F)cc2)c1 (single isomer, unassigned) [Compound 93-a]
RESULT: 5.00 to 6.00

QUERY: pIC50 for Brc1cccc(CN2CCn3nnnc3C2C2CCCCC2)c1 (centres unmarked) [Compound 65] ?
RESULT: 4.40 to 5.00

QUERY: Given Fc1ccc(C2c3nnnn3CCN2Cc2cccc(Br)c2)cc1 (racemic) [Compound 96] , state its recorded pIC50.
RESULT: 5.00 to 6.00

QUERY: Using the record for CC(C)c1nn(-c2ccccc2)cc1C1c2nnnn2CCN1C1CCCCC1 (centres unmarked) [Compound 114] , report its pIC50.
RESULT: 4.40 to 5.00
